Parameter Kd: see the listing below.
- studyTarget: KIT (Homo sapiens)
- Sequence (P10721 26-976): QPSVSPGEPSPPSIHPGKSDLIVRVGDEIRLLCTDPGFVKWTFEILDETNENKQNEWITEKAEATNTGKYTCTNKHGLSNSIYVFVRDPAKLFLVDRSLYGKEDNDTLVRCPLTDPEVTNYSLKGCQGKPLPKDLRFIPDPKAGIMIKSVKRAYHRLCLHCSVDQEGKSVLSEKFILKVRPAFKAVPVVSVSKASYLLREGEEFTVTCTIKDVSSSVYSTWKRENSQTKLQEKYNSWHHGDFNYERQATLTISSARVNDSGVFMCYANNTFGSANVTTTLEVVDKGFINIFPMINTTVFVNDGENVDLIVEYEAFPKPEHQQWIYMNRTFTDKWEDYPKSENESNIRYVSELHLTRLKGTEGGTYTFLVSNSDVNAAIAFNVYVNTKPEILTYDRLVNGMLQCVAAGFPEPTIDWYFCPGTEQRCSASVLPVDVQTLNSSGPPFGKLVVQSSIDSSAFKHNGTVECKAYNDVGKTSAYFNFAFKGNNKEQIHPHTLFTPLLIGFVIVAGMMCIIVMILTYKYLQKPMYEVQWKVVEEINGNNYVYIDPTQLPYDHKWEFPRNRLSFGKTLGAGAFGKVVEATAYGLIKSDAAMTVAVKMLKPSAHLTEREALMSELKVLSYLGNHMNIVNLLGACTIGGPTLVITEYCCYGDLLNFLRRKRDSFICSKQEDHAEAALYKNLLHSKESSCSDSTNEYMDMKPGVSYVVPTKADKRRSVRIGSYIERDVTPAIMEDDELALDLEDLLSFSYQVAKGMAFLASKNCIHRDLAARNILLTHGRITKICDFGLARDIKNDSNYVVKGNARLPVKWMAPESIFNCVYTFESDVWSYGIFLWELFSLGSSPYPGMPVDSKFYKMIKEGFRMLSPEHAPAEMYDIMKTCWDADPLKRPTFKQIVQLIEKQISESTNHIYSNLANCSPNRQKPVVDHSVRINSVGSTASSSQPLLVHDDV
Counter-ions that a name gives are not always drawn.
readoutKind: Kd

                                    compound         studytarget  readoutkind        result
 0  CCN1CCN(CCc2ccc3c(c2)sc2nc(-c4ccc(NC(=O)Nc5cc(C(C)(C)C)on5)cc4)cn23)CC1 [Compound D7, hydrochloride]  KIT (Homo sapiens)           Kd       < 10 nM
 1  CC(C)(C)c1cc(NC(=O)Nc2ccc(-c3cn4c(n3)sc3cc(CC(=O)N5CCOCC5)ccc34)cc2)no1  KIT (Homo sapiens)           Kd       < 10 nM
 2  CCOC(=O)c1ccc2c(c1)sc1nc(-c3ccc(NC(=O)Nc4cc(C(C)(C)C)on4)cc3)cn12  KIT (Homo sapiens)           Kd  10 to 100 nM
 3  CCN(CC)CCNC(=O)Cc1ccc2c(c1)sc1nc(-c3ccc(NC(=O)Nc4cc(C(C)(C)C)on4)cc3)cn12 [Compound C16, hydrochloride]  KIT (Homo sapiens)           Kd       < 10 nM
 4  CC(C)(C)c1cc(NC(=O)Nc2ccc(-c3cn4c(n3)sc3cc(CN5CCOCC5)ccc34)cc2)no1 [Compound D8, hydrochloride]  KIT (Homo sapiens)           Kd       < 10 nM
 5  CCN1CCN(C(=O)c2ccc3c(c2)sc2nc(-c4ccc(NC(=O)Nc5cc(C(C)(C)C)on5)cc4)cn23)CC1 [Compound C23, hydrochloride]  KIT (Homo sapiens)           Kd       < 10 nM
 6  CCN(CC)C(=O)CCc1ccc2c(c1)sc1nc(-c3ccc(NC(=O)Nc4cc(C(C)(C)C)on4)cc3)cn12  KIT (Homo sapiens)           Kd       < 10 nM
 7  CCN1CCN(C(=O)Cc2ccc3c(c2)sc2nc(-c4ccc(NC(=O)Nc5cc(C(C)(C)C)on5)cc4)cn23)CC1 [Compound C17, hydrochloride]  KIT (Homo sapiens)           Kd       < 10 nM
 8  O=C(CCc1ccc2c(c1)sc1nc(-c3ccc(NC(=O)N4CCOCC4)cc3)cn12)N1CCOCC1 [Compound E1]  KIT (Homo sapiens)           Kd     > 1000 nM
 9  CC(C)(C)c1cc(NC(=O)Nc2ccc(-c3cn4c(n3)sc3cc(CCN5CCOCC5)ccc34)cc2)no1 [Compound D5, hydrochloride]  KIT (Homo sapiens)           Kd       < 10 nM
10  CC(C)(C)c1cc(NC(=O)Nc2ccc(-c3cn4c(n3)sc3cc(CCCN5CCOCC5)ccc34)cc2)no1  KIT (Homo sapiens)           Kd       < 10 nM
11  CCOC(=O)Cc1ccc2c(c1)sc1nc(-c3ccc(NC(=O)Nc4cc(C(C)(C)C)on4)cc3)cn12  KIT (Homo sapiens)           Kd       < 10 nM
12  CC(C)(C)c1cc(NC(=O)Nc2ccc(-c3cn4c(n3)sc3cc(OCCN5CCCCC5)ccc34)cc2)no1 [Compound B3, hydrochloride]  KIT (Homo sapiens)           Kd       < 10 nM
